assayed system: Relaxin receptor 1 (Homo sapiens)
Sequence (Q9HBX9 whole entry): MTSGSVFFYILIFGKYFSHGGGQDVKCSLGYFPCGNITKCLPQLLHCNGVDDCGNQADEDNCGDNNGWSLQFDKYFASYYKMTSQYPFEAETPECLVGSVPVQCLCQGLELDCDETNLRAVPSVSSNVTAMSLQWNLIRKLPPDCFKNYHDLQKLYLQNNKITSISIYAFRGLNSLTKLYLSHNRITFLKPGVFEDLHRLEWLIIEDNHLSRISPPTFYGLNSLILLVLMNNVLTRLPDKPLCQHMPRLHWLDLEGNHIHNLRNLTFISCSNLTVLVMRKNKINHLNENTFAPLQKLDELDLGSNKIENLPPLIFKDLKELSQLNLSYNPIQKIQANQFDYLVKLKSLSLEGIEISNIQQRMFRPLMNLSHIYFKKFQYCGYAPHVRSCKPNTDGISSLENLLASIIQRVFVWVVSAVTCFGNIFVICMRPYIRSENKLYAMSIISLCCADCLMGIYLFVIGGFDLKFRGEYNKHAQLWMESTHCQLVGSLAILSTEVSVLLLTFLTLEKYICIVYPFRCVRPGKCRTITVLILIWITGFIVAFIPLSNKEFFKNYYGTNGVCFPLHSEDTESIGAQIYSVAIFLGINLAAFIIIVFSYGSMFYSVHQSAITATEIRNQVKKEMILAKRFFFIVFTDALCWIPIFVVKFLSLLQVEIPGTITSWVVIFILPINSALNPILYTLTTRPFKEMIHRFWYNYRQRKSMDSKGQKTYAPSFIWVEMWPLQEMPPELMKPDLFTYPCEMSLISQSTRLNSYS
assay comment: Agonist activity at human RXFP1 expressed in HEK293 cells assessed as cAMP production measured after 15 mins by BRET sensor assay
pEC50: −log10 of the molar value.

- smiles text: "COc1cc(F)c(O[C@H]2CC[C@@](C)(C(=O)O)CC2)cc1C(=O)N[C@@H]1[C@H]2CC[C@H](C2)[C@@H]1C(=O)Nc1ccc(F)c(S(F)(F)(F)(F)F)c1"
  pEC50: 10.50

###

assayed system: Relaxin receptor 1 (Homo sapiens)
assay comment: Agonist activity at human RXFP1 expressed in CHO-K1 cells assessed as dynamic mass redistribution (DMR) measured after 60 mins pretreated with UBO-QIC by G-protein coupling DMR assay

- smiles text: "COc1cc(F)c(O[C@H]2CC[C@@](C)(C(=O)O)CC2)cc1C(=O)N[C@@H]1[C@H]2CC[C@H](C2)[C@@H]1C(=O)Nc1ccc(F)c(S(F)(F)(F)(F)F)c1"
  EC50: "0.0251 nM"
